Assay: self-splicing fitness, log relative to wild type (ln ratio); higher = more splicing; Tetrahymena group I intron in knt gene, E. coli kanamycin selection, DiMSum; sequences stand for … in CUCUCU…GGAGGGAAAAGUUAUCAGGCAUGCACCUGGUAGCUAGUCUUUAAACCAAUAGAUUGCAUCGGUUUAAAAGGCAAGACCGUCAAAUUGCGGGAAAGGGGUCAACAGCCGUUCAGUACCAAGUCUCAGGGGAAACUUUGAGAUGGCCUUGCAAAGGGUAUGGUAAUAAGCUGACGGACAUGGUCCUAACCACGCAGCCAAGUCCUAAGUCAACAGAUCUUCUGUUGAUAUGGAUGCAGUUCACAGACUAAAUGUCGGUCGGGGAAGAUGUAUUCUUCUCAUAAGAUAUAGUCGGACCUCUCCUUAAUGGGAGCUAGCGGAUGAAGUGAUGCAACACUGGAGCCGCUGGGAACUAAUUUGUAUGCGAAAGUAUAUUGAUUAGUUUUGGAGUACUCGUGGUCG;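 also: selection with 25 µg/mL kanamycin versus none on LB agar overnight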
Details: 37 °C
Listed here: items and their measured self-splicing fitness (ln).

Can you look up the measured self-splicing fitness (ln) of GAAGAGCAAUAUUACGUGGA for me?
-2.54

I would be grateful if you could share the reported self-splicing fitness (ln) for UAGAAGCAAUAUUACGAGCU .
-1.18
